Hello, the source for this data is ChEMBL document CHEMBL5537163, in case you need it.

For each entry below, report its IC50 value.
- EXPERIMENTAL_TARGET: Voltage-gated inwardly rectifying potassium channel KCNH2 (Homo sapiens, UniProt Q12809)
- Sequence (Q12809 whole entry): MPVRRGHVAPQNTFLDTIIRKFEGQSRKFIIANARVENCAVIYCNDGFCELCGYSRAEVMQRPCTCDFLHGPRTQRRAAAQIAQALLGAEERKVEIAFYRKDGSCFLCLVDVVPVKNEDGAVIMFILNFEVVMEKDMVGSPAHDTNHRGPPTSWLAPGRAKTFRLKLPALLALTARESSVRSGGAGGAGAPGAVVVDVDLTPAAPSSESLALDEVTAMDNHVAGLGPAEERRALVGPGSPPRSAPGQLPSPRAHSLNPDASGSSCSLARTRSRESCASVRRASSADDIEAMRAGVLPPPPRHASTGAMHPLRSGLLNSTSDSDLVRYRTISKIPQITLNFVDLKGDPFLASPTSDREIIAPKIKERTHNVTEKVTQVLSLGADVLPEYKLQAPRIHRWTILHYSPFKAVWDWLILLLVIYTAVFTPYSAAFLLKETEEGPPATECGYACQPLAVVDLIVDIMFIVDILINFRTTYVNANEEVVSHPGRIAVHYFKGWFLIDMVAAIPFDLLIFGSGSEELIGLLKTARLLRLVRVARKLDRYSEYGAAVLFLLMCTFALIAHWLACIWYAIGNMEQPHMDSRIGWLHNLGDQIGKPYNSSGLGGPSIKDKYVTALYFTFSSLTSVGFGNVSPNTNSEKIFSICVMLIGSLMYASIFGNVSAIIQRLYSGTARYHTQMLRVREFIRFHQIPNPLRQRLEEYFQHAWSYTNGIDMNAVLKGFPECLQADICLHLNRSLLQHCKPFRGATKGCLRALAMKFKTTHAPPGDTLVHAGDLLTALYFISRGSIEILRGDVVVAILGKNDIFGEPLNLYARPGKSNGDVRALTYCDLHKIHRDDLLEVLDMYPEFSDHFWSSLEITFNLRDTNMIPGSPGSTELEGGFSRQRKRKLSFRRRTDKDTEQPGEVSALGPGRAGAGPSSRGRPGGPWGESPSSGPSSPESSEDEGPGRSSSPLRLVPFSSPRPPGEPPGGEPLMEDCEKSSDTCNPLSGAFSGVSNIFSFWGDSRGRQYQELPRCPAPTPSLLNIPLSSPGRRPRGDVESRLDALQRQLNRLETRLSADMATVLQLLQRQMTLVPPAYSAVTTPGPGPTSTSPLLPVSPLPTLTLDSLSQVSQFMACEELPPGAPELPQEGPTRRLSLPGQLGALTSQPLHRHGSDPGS
- METHOD_NOTES: Inhibition of hERG in HEK293 cells at -80 mV holding potential by automated patch clamp electrophysiology
- Type: toxicity, cell-based

Example results:
[
  {
    "SMILES_STRUCTURE": "CCNC(=O)c1cc2c(-c3cc(C(C)(C)O)ccc3Oc3c(C)cc(F)cc3C)cn(C)c(=O)c2[nH]1",
    "EXPERIMENTAL_TARGET": "Voltage-gated inwardly rectifying potassium channel KCNH2 (Homo sapiens, UniProt Q12809)",
    "IC50": "2.8 µM"
  },
  {
    "SMILES_STRUCTURE": "CCNC(=O)COc1cc(=O)n(C)cc1-c1cc(C(C)(C)O)ccc1Oc1c(C)cccc1C",
    "EXPERIMENTAL_TARGET": "Voltage-gated inwardly rectifying potassium channel KCNH2 (Homo sapiens, UniProt Q12809)",
    "IC50": "> 30 µM"
  }
]

// returns IC50 for Cc1cc(F)cc(C)c1Oc1ccc(C(C)(C)O)cc1-c1cn(C)c(=O)cc1NCC(=O)N1CCOCC1 with Voltage-gated inwardly rectifying potassium channel KCNH2 (Homo sapiens, UniProt Q12809); value = > 30 µM
